Here the recorded TGI is given for each entry.
Tested on: MOLT-4 leukemia
Experiment: NCI tumour cell line growth inhibition, 48 h

[
  {
    "Query smiles": "C=CCn1c(-c2ccc(Cl)cc2)csc1=Nc1ccccc1OC",
    "Study target": "MOLT-4 leukemia",
    "Relation sign": "=",
    "TGI, µM": 14.9
  },
  {
    "Query smiles": "O=C(c1ccco1)N(C(=S)N1CCN(c2ccccn2)CC1)c1ccccc1",
    "Study target": "MOLT-4 leukemia",
    "Relation sign": ">",
    "TGI, µM": 100
  },
  {
    "Query smiles": "COc1ccc2c(c1OC)C(=O)O[C@@H]2[C@H]1c2c(cc3c(c2OC)OCO3)CCN1C",
    "Study target": "MOLT-4 leukemia",
    "Relation sign": ">",
    "TGI, µM": 100
  },
  {
    "Query smiles": "Nc1ccccc1C(=O)NC(=O)Nc1ccc(Oc2ncc(Br)cn2)c(Cl)c1",
    "Study target": "MOLT-4 leukemia",
    "Relation sign": "=",
    "TGI, µM": 33.9
  },
  {
    "Query smiles": "O=C1C(Cl)=C(NCCF)C(=O)c2ncccc21",
    "Study target": "MOLT-4 leukemia",
    "Relation sign": "=",
    "TGI, µM": 3.72
  },
  {
    "Query smiles": "Cc1ccccc1N=Nc1c(-c2ccccc2)nn(C(=O)CC(=O)Nc2cccc(Cl)c2)c1-c1ccccc1",
    "Study target": "MOLT-4 leukemia",
    "Relation sign": "=",
    "TGI, µM": 22.7
  },
  {
    "Query smiles": "COc1ccc(-c2nn3ncccc3c2-c2ccnc(Nc3ccc4c(c3)OCCO4)n2)cc1",
    "Study target": "MOLT-4 leukemia",
    "Relation sign": ">",
    "TGI, µM": 25
  },
  {
    "Query smiles": "O=c1c2c3c(sc2nc2n1N=CN(c1ccc(F)cc1)C2)CCCC3",
    "Study target": "MOLT-4 leukemia",
    "Relation sign": ">",
    "TGI, µM": 100
  },
  {
    "Query smiles": "O=C1NC(=Nc2ccccc2Cl)N/C1=C\\c1ccc(Cl)cc1Cl",
    "Study target": "MOLT-4 leukemia",
    "Relation sign": ">",
    "TGI, µM": 100
  }
]
